# System: DMS-273
# Assay Procedure: NCI tumour cell line growth inhibition, 48 h
Activity calls are given as the source filed them. Rule as the data show it: active = GI50 up to about 1.1 µM and inactive = higher.
Outcome field: choose from Y for active, N for inactive

Please let me know the test result on file for O=C1OC2C(O)COC2(O)C1(O)Cc1c[nH]c2ccccc12.O=C1OC2C(O)COC2(OCc2c[nH]c3ccccc23)C1O (stereo unspecified) .
N

Please let me know the test result on file for Cn1c(=O)n(C2(C)C[Se]C2)c2ccccc21 .
N

Please let me know the test result on file for CC1=C2C(=CC(C)(CO)C2O)C(=O)C(C)(O)C12CC2 (stereo unspecified) .
Y

Please let me know the test result on file for O=C1Cc2ccccc2N1/N=C\c1ccc([N+](=O)[O-])cc1 .
N

Please let me know the test result on file for CCOC(=O)[C@]12C3C=CC(C3)C1C(=O)C1OC12 (stereo partly specified) .
N

Please let me know the test result on file for O=C(O)c1ccc(Nc2nc3nn(Cc4ccccc4)cc3c(=O)s2)cc1 .
N

Please let me know the test result on file for O=C(O)COc1ccc(C(=O)/C(SS/C(C(=O)c2ccc(OCC(=O)O)c(Cl)c2Cl)=C2\C=C(c3ccc(Br)cc3)SS2)=C2/C=C(c3ccc(Br)cc3)SS2)c(Cl)c1Cl .
N

Please let me know the test result on file for O=C(NCCCCCCCCNC(=O)c1cccc2ccccc12)c1cccc2ccccc12 .
N

Please let me know the test result on file for Cc1nc2cc(/N=N/c3c(O)ccc4ccccc34)ccc2[nH]1 .
N

Please let me know the test result on file for Cc1cc(=O)n(-c2c(C)cccc2Cl)c(/C=C(\O)c2ccncc2)n1 .
N

Please let me know the test result on file for Cc1cccc(N(CC(=O)O)S(=O)(=O)c2ccccc2)c1 .
N

Please let me know the test result on file for OC1=CN=COc2ccccc21 .
N

Please let me know the test result on file for COc1cc(/C=C(\C)c2ccc3c(c2)OCO3)cc(OC)c1OC .
N

Please let me know the test result on file for Cn1c(=O)c2c(nc(C[N+]3([O-])CCOCC3)n2C)n(C)c1=O .
N

Please let me know the test result on file for O=c1c(O)c(-c2ccc(O)c(O)c2)oc2cc(O)ccc12 [FISETIN] .
N

Please let me know the test result on file for Cc1cc2oc(-c3ccccc3)c(C)c(=O)c2c2c1OC(C)(C)S2 .
N
